- Test system: PC-3 prostate
- protocol_notes: NCI tumour cell line growth inhibition, 48 h
endpoint: TGI

TGI in this record for `CC[n+]1ccc2c(c1)C(=O)c1nccc3c1c-2nc1ccccc13` : 16.2 µM

For this compound ( `COc1nc2c(cc1S(=O)(=O)c1ccccc1)CCc1c-2cnn1-c1ccccc1Cl` ), measured TGI is > 100 µM

Lab note: `Cn1cc(C2=C(c3ccc(OC[C@@H](O)CO)cc3)C(=O)NC2=O)c2ccccc21` gave TGI of > 25 µM

Notebook: `Cc1cc(C)c2c(n1)S(=O)(=O)N(CCCN1CCN(c3cccc(C(F)(F)F)c3)CC1)/C(=C(\O)c1ccc(Cl)cc1)C2=O` , TGI read as 13.6 µM

Query `CC1(C)N=C(N)N=C(N)N1c1ccc(CCCCc2ccc(S(=O)(=O)F)cc2Cl)c(Cl)c1` yields TGI of 112 µM

TGI measured on `CCn1c(=O)c2c3cc(O)ccc3oc2c2ccc(O)cc21` = > 100 µM

Consider `N#CSCc1cccc(Nc2cc(=O)[nH]c(=O)[nH]2)c1` . Its measured TGI is > 100 µM

The recorded TGI for `Cc1cccc(C[C@@]2(SCc3ccccc3)C(C)(C)[C@@H]3CC[C@@]2(C)C3)n1` is 35.7 µM

The recorded TGI for `C=CC/C(C(=O)OC)=C(/C(=O)OC)N(CCC)CCC` is > 100 µM

According to the records, this compound `COc1cccc(-c2nn(-c3ccccc3)cc2-c2ccnc(NCCCNS(=O)(=O)c3cccc(F)c3)c2)c1` displays TGI of > 100 µM

Sample `CCOC(=O)C(=O)N1C(C)=C(C(=O)OCC)CC(C(=O)OCC)=C1C` ; TGI observed: > 100 µM

Memo: `COC(=O)[C@@H](C)C[C@H](Cc1ccccc1)NC(=O)c1nc([C@@H](C[C@H](C(C)C)N(C)C(=O)[C@@H](NC(=O)[C@H]2CCCN2C)C(C)C)OC(C)=O)sc1C` , reported TGI: > 25 µM

// recorded TGI for `CN(C)c1ccc(/C(Br)=C2\OC(=O)c3ccccc32)cc1` : > 100 µM

For record `Brc1ccc2c3c1[C@@H]1O[C@@H]1c1cccc(c1-3)[C@@H]1O[C@H]21` the listed TGI is > 71.7 µM

Entry O=C1CC(c2ccc([N+](=O)[O-])cc2)C2(C(=O)NC(=S)NC2=O)C(c2ccc([N+](=O)[O-])cc2)C1 (stereo not given) ; TGI = > 100 µM

Recorded TGI (compound O=C(CCc1ccc(O)cc1)c1c(O)cc(O)cc1OC1OC(CO)C(O)C(O)C1O (stereo not given) ): > 100 µM

Value of measured TGI for the entry `CN(C)c1ccc2c(c1)oc(=O)c1ccccc12` : 30.5 µM

// COc1ccc(NC2Oc3cc4c(cc3C(c3cc(OC)c(OC)c(OC)c3)C2C)OCO4)cc1 (stereo not given) : TGI value = > 100 µM

Record `Fc1ccc(-c2nn(-c3ccccc3)cc2-c2nc3ccccc3o2)cc1` . Reported TGI: > 100 µM

Record `S=C1NCCN1C1=Nc2ccccc2CO1` . Reported TGI: > 100 µM

Lab note: `O=C(O[C@H](/C=C/c1ccccc1)P1(=O)N(Cc2ccccc2)[C@@H]2CCCC[C@H]2N1Cc1ccccc1)c1ccccc1` gave TGI of > 100 µM

// sample `CN1CCN(Cc2ccc(NC(=O)c3cncc(C#Cc4cnc(N)c5ccccc45)c3)cc2C(F)(F)F)CC1` , its TGI was 1.36 µM

Record O=C1CCC(NC(=O)c2ccccc2)C(=O)N1 (stereo not given) , field TGI: > 100 µM

Noted for `O=C1/C(=C/c2ccc(Br)s2)NC(=S)N1CN1CCOCC1` : its TGI reads > 100 µM

The compound `O=C(O)Cc1ccc2nc(COC(=O)c3ccccc3)sc2c1` showed TGI equal to > 100 µM

Summary for this compound, `N#CC(C#N)=C1CCCS(=O)(=O)c2ccccc21` : TGI is > 100 µM

Per the record, `COc1cc2c(c(O)c1C)C(=O)C(Cl)=CC2=O` has TGI of 28.7 µM

The recorded TGI for entry `CC(C)/C(Cl)=N\OC(=O)NNc1ccccc1` equals > 100 µM

For `CCN1CCN(c2nc(NCCNc3ccnc4cc(Cl)ccc34)c3ccccc3n2)CC1` the compound record lists TGI as 15.7 µM

Measured TGI of `CC(C)CCNC(=O)c1ccc(CNC(=O)/C=C/c2ccc(OCc3ccccc3)cc2)cc1` : > 100 µM
